assayOverview: S16 Schwann cell PMP22 intronic element firefly luciferase assay (AID 624032); further: nearly all actives have a fitted effect of over 30% in size
testContext: S16 rat Schwann cells, PMP22 element FLuc, 24 h; series mostly up to 57.5 µM
Records with an inconclusive call do not appear. Activity calls are given as the source filed them. The call rests on the fitted dose curve; in most records, active means well fitted inhibition curve with a large enough effect; inconclusive means small, poorly fitted or top-dose-only effect; inactive means no such curve, though single readings can be large or run the other way.
Form entry, call: pick from active, inactive

# compound, assignedLabel
measured = [
    ("Cc1cccc([C@H](C)c2cnc[nH]2)c1C", "inactive"),
    ("CCCCCCCCCC[N+](C)(C)CCCCCCCCCC", "active"),
    ("Oc1cc[c]([Hg][Cl])cc1", "active"),
]

Recorded test outcome, item CO[C@H]1[C@@H](O)CC(OC2[C@@H](O)CC(OC3[C@@H](O)C[C@H](OC4CC[C@@]5(C)C(CCC6C5CC(O)[C@]5(C)[C@H](C7=CC(=O)OC7)CCC65O)C4)O[C@@H]3C)O[C@@H]2C)O[C@@H]1C (some centres not stated) inactive

Test call, this compound: C[N+](C)(C)CC(=O)[O-] inactive

Record request — test call for CC(C)[C@@]1(NC(=O)[C@H]2CC3c4cccc5[nH]cc(c45)C[C@H]3N(C)C2)O[C@@]2(O)C3CCCN3C(=O)[C@@H](Cc3ccccc3)N2C1=O (some centres not stated) active

Hi, do you know how CCC(C(=O)O)C1CCC(C)C(C(C)C(O)C(C)C(=O)C(CC)C2OC3(C=CC(O)[C@@]4(CC[C@](C)(C5CC[C@@](O)(CC)C(C)O5)O4)O3)C(C)CC2C)O1 (some centres not stated) came out in this test? active
